The reported measurements were obtained from ChEMBL document CHEMBL3352059.

- assay_info: Aqueous solubility of the compound at pH 7.4 after 5 mins by HPLC analysis
- Type: physicochemical
Overview of reported solubility at 5 min across a group of compounds:
Enter your answer as a number in µM; do not include the unit.

{"compound": "Cc1nc2ccc(N)cc2nc1-c1ccccc1", "readout_unit": "µM", "solubility at 5 min": 125}

Bench note: what solubility at 5 min did CCCCCCCCCCCCCCCNc1ccc2nc(C)cnc2c1 show?
5

----------
- assay_info: Ratio of drug uptake from brain to plasma in C57BL/6J mouse at 150 mg/kg, po bid administered for 4 days followed by single dose on day 5 measured 1 hr post last dose
- Format: ADME, organism-based
- Design: dose 150 mg/kg, route oral
- condition: read-out: BPR
recorded_metric: Kp at 1 h
Give your answer as a number; write no unit.

For Cc1nc2ccc(N)cc2nc1-c1ccccc1 , what is its reported Kp at 1 h?
1
